Form field: pKi (one value per entry).
- study_target: Induced myeloid leukemia cell differentiation protein Mcl-1 (Homo sapiens)
- Sequence (Q07820 whole entry, the tested form may be a part): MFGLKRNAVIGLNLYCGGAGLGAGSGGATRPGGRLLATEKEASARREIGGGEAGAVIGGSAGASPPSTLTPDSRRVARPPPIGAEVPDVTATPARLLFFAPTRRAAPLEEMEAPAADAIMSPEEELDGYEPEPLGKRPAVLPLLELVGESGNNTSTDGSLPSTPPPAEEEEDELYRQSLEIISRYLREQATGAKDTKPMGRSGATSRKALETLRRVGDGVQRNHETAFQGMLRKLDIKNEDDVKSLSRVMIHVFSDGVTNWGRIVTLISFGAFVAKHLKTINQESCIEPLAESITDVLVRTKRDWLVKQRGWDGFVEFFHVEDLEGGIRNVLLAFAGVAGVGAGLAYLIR
- assay_comment: Inhibition of 6-carboxyfluorescein succinimidyl ester fluorescence tagged-Bid BH3 peptide (79 to 99 residues) binding to Mcl-1 (unknown origin) after 30 mins by fluorescence polarization assay
pKi: −log10 of the molar value.
result_type: pKi

>>> print(df.to_string())
                                smiles_text  result_type  relation  recorded_number
0  NC(=O)c1cc2ccc(OCC(=O)O)cc2n1CCCOc1cccc2ccccc12          pKi         =             4.99
1  Cc1cc(OCCCn2ccc3c(OCC(=O)O)cccc32)cc(C)c1Cl          pKi         =             5.70
2   COc1ccc(OCCCn2ccc3ccc(OCC(=O)O)cc32)cc1          pKi         =             5.35
3  CC(C)(C)c1ccc(OCCCn2c(C(=O)N3CCCCC3)cc3ccc(OCc4ccccc4C(=O)O)cc32)cc1          pKi         =             6.44
4       O=C(O)COc1ccc2ccn(CCCOc3ccccc3)c2c1          pKi         <             4.52

----------
- study_target: Induced myeloid leukemia cell differentiation protein Mcl-1 (Homo sapiens)
- assay_comment: Inhibition of 6-carboxyfluorescein succinimidyl ester fluorescence tagged-Bid BH3 peptide (79 to 99 residues) binding to Mcl-1 (unknown origin) after 30 mins by fluorescence polarization assay
Classify on Ki using lower range: < 800 nM; middle range: ≥ 800 nM and < 2000 nM; upper range: ≥ 2000 nM

>>> print(df.to_string())
                                 smiles_text   label_value
 0  CC(C)(C)c1ccc(SCCCn2ccc3ccc(OCC(=O)O)cc32)cc1   upper range
 1  Cc1cc2c(C(C)C)c(O)c(O)c(C=O)c2c(O)c1-c1c(C)cc2c(C(C)C)c(O)c(O)c(C=O)c2c1O   lower range
 2  COc1ccc(OCCCn2c(C(N)=O)cc3ccc(OCC(=O)O)cc32)cc1   upper range
 3  Cc1cc(OCCCn2ccc3ccc(OCC(=O)O)cc32)ccc1Cl   upper range
 4  Cc1cc(OCCCn2ccc3c(OCc4cccc(C(=O)O)c4)cccc32)cc(C)c1Cl   lower range
 5  CNC(=O)c1cc2ccc(OCc3ccccc3C(=O)O)cc2n1CCCOc1cc(C)c(Cl)c(C)c1  middle range
 6  Cc1cc(OCCCn2c(C(=O)N3CCCCC3)cc3ccc(OCc4ccccc4C(=O)O)cc32)cc(C)c1Cl   lower range
 7  Cc1cc(OCCCn2ccc3cc(OCc4ccc(C(=O)O)cc4)ccc32)cc(C)c1Cl  middle range
 8  Cc1cc(OCCCn2c(C(=O)N(C)C)cc3ccc(OCc4ccccc4C(=O)O)cc32)cc(C)c1Cl   lower range
 9  Cc1cc(OCCCn2ccc3ccc(OCCCC(=O)O)cc32)cc(C)c1Cl   upper range
10   O=C(O)COc1ccc2ccn(CCCOc3ccc(Cl)cc3)c2c1   upper range
11  Cc1cc(OCCCn2ccc3ccc(OCC(=O)O)cc32)cc(C)c1Cl  middle range
12  CC(C)(C)Oc1ccc(OCCCn2ccc3ccc(OCC(=O)O)cc32)cc1  middle range
13  Cc1cc(OCCCn2ccc3ccc(OCc4ccc(C(=O)O)cc4)cc32)cc(C)c1Cl  middle range

----------
- study_target: Induced myeloid leukemia cell differentiation protein Mcl-1 (Homo sapiens)
- assay_comment: Inhibition of 6-carboxyfluorescein succinimidyl ester fluorescence tagged-Bid BH3 peptide (79 to 99 residues) binding to Mcl-1 (unknown origin) after 30 mins by fluorescence polarization assay
pKi: −log10 of the molar value.
result_type: pKi

In [3]: df
Out[3]:
                                 smiles_text  result_type  relation  recorded_number
 0  O=C(O)COc1ccc2ccn(CCCOc3ccc(Oc4ccccc4)cc3)c2c1          pKi         =             5.49
 1  Cc1cc(C)cc(OCCCn2ccc3ccc(OCC(=O)O)cc32)c1          pKi         =             4.90
 2    Cc1cccc(OCCCn2ccc3ccc(OCC(=O)O)cc32)c1          pKi         <             4.52
 3  NC(=O)c1cc2ccc(OCC(=O)O)cc2n1CCCOc1ccc(Oc2ccccc2)cc1          pKi         =             5.38
 4  CC(C)(C)c1ccc(OCCn2ccc3ccc(OCC(=O)O)cc32)cc1          pKi         =             5.09
 5  CCOC(=O)c1ccc2ccn(CCCOc3cc(C)c(Cl)c(C)c3)c2c1          pKi         <             4.52
 6    Cc1ccc2ccn(CCCOc3cc(C)c(Cl)c(C)c3)c2c1          pKi         <             4.52
 7  O=C(O)COc1ccc2ccn(CCCOc3cccc4ccccc34)c2c1          pKi         =             5.59
 8  CC(C)(C)c1ccc(OCCCn2ccc3cc(OCc4ccccc4C(=O)O)ccc32)cc1          pKi         =             6.51
 9  CC(C)(C)Oc1ccc(OCCCn2c(C(N)=O)cc3ccc(OCC(=O)O)cc32)cc1          pKi         =             5.27
10         Cc1cc(OCCCn2ccc3ccccc32)cc(C)c1Cl          pKi         <             4.52
11  Cc1cc(OCCCn2ccc3ccc(C(=O)O)cc32)cc(C)c1Cl          pKi         =             5.52
12  Cc1cc(OCCCn2ccc3c(OCc4ccccc4C(=O)O)cccc32)cc(C)c1Cl          pKi         =             6.85
13  CC(C)(C)c1ccc(OCCCn2ccc3cc(OCc4cccc(C(=O)O)c4)ccc32)cc1          pKi         =             6.60
14   Cc1cc(OCCCn2ccc3ccc(OCCO)cc32)cc(C)c1Cl          pKi         =             5.68
15  CCOC(=O)COc1ccc2ccn(CCCOc3cc(C)c(Cl)c(C)c3)c2c1          pKi         =             5.47
16  Cc1cc(OCCCn2ccc3ccc(OCc4cccc(C(=O)O)c4)cc32)cc(C)c1Cl          pKi         =             6.13
17  Cc1cc(OCCCn2ccc3cc(OCC(=O)O)ccc32)cc(C)c1Cl          pKi         =             5.83
18  Cc1cc(OCCCn2c(C(N)=O)cc3ccc(OCc4ccccc4C(=O)O)cc32)cc(C)c1Cl          pKi         =             6.02
19  Cc1cc(OCCCn2ccc3cc(OCc4ccccc4C(=O)O)ccc32)cc(C)c1Cl          pKi         =             6.96
20  Cc1cc(OCCn2ccc3ccc(OCC(=O)O)cc32)cc(C)c1Cl          pKi         =             4.94
21  Cc1cc(OCCCn2ccc3cc(OCc4cccc(C(=O)O)c4)ccc32)cc(C)c1Cl          pKi         =             6.70

----------
A short record of Ki observed with Apoptosis regulator Bcl-2 (Homo sapiens, UniProt P10415) follows.
Sequence (P10415 whole entry): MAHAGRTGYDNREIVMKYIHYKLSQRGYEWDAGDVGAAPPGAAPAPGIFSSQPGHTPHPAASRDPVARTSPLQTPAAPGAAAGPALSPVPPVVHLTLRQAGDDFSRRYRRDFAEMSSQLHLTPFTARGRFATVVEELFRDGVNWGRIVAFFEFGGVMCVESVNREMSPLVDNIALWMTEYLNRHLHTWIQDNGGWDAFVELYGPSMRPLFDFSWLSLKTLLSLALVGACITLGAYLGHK
result_type: Ki (nM)

>>> df
                                smiles_text  recorded_number
0  Cc1cc(OCCCn2ccc3ccc(OCc4ccccc4C(=O)O)cc32)cc(C)c1Cl             1050
1  Cc1cc(OCCCn2ccc3cc(OCc4ccc(C(=O)O)cc4)ccc32)cc(C)c1Cl             1410
2  CC(C)(C)c1ccc(OCCCn2ccc3cc(OCc4ccccc4C(=O)O)ccc32)cc1              170
3  Cc1cc(OCCCn2ccc3c(OCc4cccc(C(=O)O)c4)cccc32)cc(C)c1Cl              140
4  CNC(=O)c1cc2ccc(OCc3ccccc3C(=O)O)cc2n1CCCOc1cc(C)c(Cl)c(C)c1              810
5  Cc1cc(OCCCn2ccc3ccc(OCc4ccc(C(=O)O)cc4)cc32)cc(C)c1Cl             1240
6  CC(C)(C)c1ccc(OCCCn2ccc3cc(OCc4cccc(C(=O)O)c4)ccc32)cc1              470
7  Cc1cc(OCCCn2ccc3c(OCc4ccccc4C(=O)O)cccc32)cc(C)c1Cl              230
8  Cc1cc(OCCCn2c(C(=O)N(C)C)cc3ccc(OCc4ccccc4C(=O)O)cc32)cc(C)c1Cl              730

Value source: ChEMBL document CHEMBL4014295
